- Tested on: NCI-H23
- Procedure Summary: NCI tumour cell line growth inhibition, 48 h
Active and inactive are the calls of the source. No stated cut-off is given here; in the data, active = GI50 up to about 1.1 µM and inactive = higher.
Outcome codes: true (active), false (inactive)

> print(dat)
                                   molecule  category
1  CN(C)c1ccc(/C=C2\C[C@H]3[C@@H]4CCc5cc(OCCN6CCCC6)ccc5[C@H]4CC[C@]3(C)[C@H]2O)cc1     false
2  N#Cc1ccccc1NC(=O)C(=O)C(C(=O)c1ccccc1F)C1OC(=O)c2ccccc21 (centres undefined)     false
3  O=C(NC(Nc1ccc(F)c(Cl)c1)(C(F)(F)F)C(F)(F)F)OCc1ccccc1     false
4  Cc1c2cc[n+](C)cc2c(C)c2c1[nH]c1ccc(OC(C)C)cc12     false
5  Cc1cccc2c(NCCN(C)C)c3cccc(C(=O)NCCN(C)C)c3nc12      true
6  O=C(c1ccc(Cl)cc1Cl)N(/N=C/C=C/c1ccccc1)c1nnc(-c2ccccc2)c(-c2ccccc2)n1     false
7  COc1cc(OC(=O)c2c(O)cc(O)c(O)c2C)cc(C)c1C(=O)Oc1cc(C)c(C(=O)O)c(O)c1     false
8  CSC[C@H](NC(=O)COc1cccc2cnccc12)C(=O)NC(Cc1ccccc1)C(O)C(=O)N1CSC[C@H]1C(=O)NC(C)(C)C (some centres undefined)     false
9  N#Cc1[nH]c(=O)n(-c2ccc([N+](=O)[O-])cc2)c1N     false
